system: U2OS; assay: Multiplex assay against U2OS; type: toxicity, cell-based; settings: human, 24 h, 10 µM, compound concentration 10 uM, replicate 1
Below, each entry is listed with its recorded Population Healthy Nuclei (%).
Only the number, expressed in %, is required.

Here is how some molecules turned out for Population Healthy Nuclei (%).
Enquiry: State the recorded Population Healthy Nuclei (%) for this entry: CCc1cc2c(cc1CC)CC(NC[C@H](O)c1ccc(O)c3[nH]c(=O)ccc13)C2
Return: 43

Enquiry: Which value of Population Healthy Nuclei (%) has been reported for CC(C)N1CCC(C)(C)c2cc(C#Cc3ccc(C(=O)O)cc3)ccc21 in the records?
Return: 49

Enquiry: Which Population Healthy Nuclei (%) is reported for this molecule? Cl.Cl.Nc1ncnc2c1c(-c1cccc(OCc3ccccc3)c1)cn2[C@H]1C[C@@H](CN2CCC2)C1
Return: 30

Others:
Enquiry: Request the reported Population Healthy Nuclei (%) associated with COc1cc2c(Nc3ccc(NC(=O)c4ccccc4)cc3)ncnc2cc1OCCCN1CCOCC1
Return: 83

Enquiry: If you can, please state the reported Population Healthy Nuclei (%) value of Nc1ccc(C(=O)Nc2cccc(-c3nc(N4CCOCC4)c4oc5ncccc5c4n3)c2)cn1 .
Return: 14

Enquiry: Which Population Healthy Nuclei (%) reading was recorded for the molecule CCn1c(-c2nonc2N)nc2cnc(Oc3cccc(NC(=O)c4ccc(OCCN5CCOCC5)cc4)c3)cc21 [GSK-269962A] ?
Return: 55

###

system: U2OS; assay: Multiplex assay against U2OS; type: toxicity, cell-based; conditions: human, 12 h, 10 µM, compound concentration 10 uM, replicate 1
Parameter measured: Population Hoechst High Intensity Objects (%)
Value expressed in %; do not type the unit.

Enquiry: GET /values?readout=Population Hoechst High Intensity Objects (%)&system=U2OS&item= CN(C)C/C=C/C(=O)Nc1cc2c(Nc3ccc(F)c(Cl)c3)ncnc2cc1O[C@H]1CCOC1.O=C(O)/C=C\C(=O)O.O=C(O)/C=C\C(=O)O [AFATINIB DIMALEATE]
Return: 2

Enquiry: Field: Population Hoechst High Intensity Objects (%) (U2OS). Entry: Cc1cc2c(cc1N1C(=O)c3cccc4c(CCCO)ccc(c34)C1=O)n(C)c(=O)n2C
Return: 6

Enquiry: Recorded Population Hoechst High Intensity Objects (%) for CCC(=O)O[C@]1(C(=O)SCF)[C@H](C)C[C@H]2[C@@H]3C[C@H](F)C4=CC(=O)C=C[C@]4(C)[C@@]3(F)[C@@H](O)C[C@@]21C [FLUTICASONE PROPIONATE] with U2OS, please?
Return: 9

More entries:
Enquiry: Request: Population Hoechst High Intensity Objects (%), test system U2OS, entry Nc1nc2c(c(N3CCNCC3)n1)CCC1=C2[C@@H]2CCCC[C@@H]2O1
Return: 9

Enquiry: Provide value of Population Hoechst High Intensity Objects (%) for this record tested with U2OS: O=C(O)c1ccc2cc(-c3ccc(O)c(C45CC6CC(CC(C6)C4)C5)c3)ccc2c1
Return: 6

Enquiry: Return Population Hoechst High Intensity Objects (%) measured with U2OS given this molecule: CCn1c(-c2nonc2N)nc2cnc(Oc3cccc(NC(=O)c4ccc(OCCN5CCOCC5)cc4)c3)cc21 [GSK-269962A]
Return: 10

Enquiry: Param readout= Population Hoechst High Intensity Objects (%); system= U2OS; entry= CC(C)N1CCC(C)(C)c2cc(C#Cc3ccc(C(=O)O)cc3)ccc21 ; returns value.
Return: 54
